# Protocol text: Stability of the compound in pH 7.4 buffer assessed as intact compound after 3.5 hrs by one-dimensional 1H-NMR analysis
# Format: physicochemical
# Condition: read-out: Stability
Non-standard residues stand in square brackets, D forms with d. Residues, ends and D or L forms follow the SMILES beside them. *: point of attachment. Benzoyl(2-OMe,5-SO2F) = COc1ccc(S(=O)(=O)F)cc1C(=O)*; Dap = NC[C@H](N)C(=O)O
Readout kind: remaining at 3.5 h (%)
Provide only the numeric value, understood in %.

Any idea what remaining at 3.5 h was measured for CC[C@H](C)[C@H](NC(=O)[C@H](CCCNC(=N)N)NC(=O)[C@H](CCCNC(=N)N)NC(=O)[C@H](CC(C)C)NC(=O)[C@H](CCC(N)=O)NC(=O)[C@H](CCC(=O)O)NC(=O)[C@H](C)NC(=O)[C@@H](NC(=O)[C@H](CNC(=O)c1cc(S(=O)(=O)F)ccc1OC)NC(C)=O)[C@@H](C)CC)C(=O)NCC(=O)N[C@@H](CC(=O)O)C(=O)N[C@@H](CCCNC(=N)N)C(=O)N[C@@H](Cc1ccccc1)C(N)=O (Ac-[Dap](Benzoyl(2-OMe,5-SO2F))IAEQLRRIGDRF-NH2) ?
100
